EC50 for assorted molecules
Test system: HT-1080 cells
Test: Lethality of commercially available CIL41/70 structural analogs
Type: cell-based
Details: Homo sapiens, tested once in technical triplicates

Worked cases, answers included:
COc1ccccc1C/C(N)=N/OC(=O)COc1ccc(Br)cc1    > 20 µg/mL
N/C(Cc1cccs1)=N\OC(=O)COc1ccccc1    > 20 µg/mL

Kindly note: HT-1080 cells, COc1ccc(CC(=O)O/N=C(\N)Cc2ccc(Cl)c(Cl)c2)cc1OC , EC50 value reported: > 20 µg/mL

Kindly note: HT-1080 cells, Cc1cc(Br)ccc1OCC(=O)O/N=C(\N)Cc1ccc(Cl)cc1Cl , EC50 value reported: > 20 µg/mL

Kindly note: HT-1080 cells, COc1ccccc1C/C(N)=N/OC(=O)COc1ccc(C)cc1 , EC50 value reported: > 20 µg/mL

Kindly note: HT-1080 cells, N/C(Cc1cccc2ccccc12)=N\OC(=O)CCC1CCCCC1 , EC50 value reported: > 20 µg/mL

Kindly note: HT-1080 cells, N/C(Cc1ccc(Cl)cc1Cl)=N\OC(=O)CSc1ccccc1 , EC50 value reported: > 20 µg/mL

Kindly note: HT-1080 cells, COc1ccccc1C/C(N)=N/OC(=O)COc1ccc(C)cc1C , EC50 value reported: > 20 µg/mL
